Tested on: MCF7 (breast adenocarcinoma)
Test: MTS assay, inhibition of cell proliferation, MCF7
Assay type: cell-based
Conditions: Homo sapiens, MCF7, 72 h, read-out: Inhibition of cell proliferation (IC50)

# compound, target_of_assay, result_unit, IC50
records = [
    ("COc1cc(OC)c2c(c1)O[C@@]1(c3ccc(Br)cc3)[C@H](c3ccccc3)C[C@@H](O)[C@@]21O (racemic) [FL3, bromo-demethoxy-rocaglaol]", "MCF7 (breast adenocarcinoma)", "nM", 1),
]

---

Tested on: Resistant MCF7 (MCF7R) cells
Assay: MTS assay, inhibition of cell proliferation, MCF7R
Assay type: cell-based
Conditions: Homo sapiens, 72 h, read-out: Inhibition of cell proliferation (IC50)

# compound, IC50
records = [
    ("COc1cc(OC)c2c(c1)O[C@@]1(c3ccc(Br)cc3)[C@H](c3ccccc3)C[C@@H](O)[C@@]21O (racemic)", "< 1 nM"),
]

---

pIC50 listing for selected compounds.
System: MDA231 (breast adenocarcinoma)
Assay: MTS assay, cytotoxicity, MDA231
Settings: Homo sapiens, MDA-MB-231, read-out: Cytotoxicity (IC50)
pIC50: −log10 of the molar value.
reported_endpoint: pIC50

# compound, target_of_assay, recorded_number
data = [
    ("CC[C@]1(O)C[C@@H]2CN(CCc3c([nH]c4ccccc34)[C@@](C(=O)OC)(c3cc4c(cc3OC)N(C)[C@H]3[C@@](O)(C(=O)OC)[C@H](OC(C)=O)[C@]5(CC)C=CCN6CC[C@]43[C@@H]65)C2)C1 [Vinblastin, vinblastine, reference compound]", "MDA231 (breast adenocarcinoma)", 9.20),
    ("COc1cc(OC)c2c(c1)O[C@@]1(c3ccc(Br)cc3)[C@H](c3ccccc3)C[C@@H](O)[C@@]21O (racemic)", "MDA231 (breast adenocarcinoma)", 8.42),
    ("COc1cc(OC)c2c(c1)O[C@@]1(c3ccc(Br)cc3)[C@H](c3ccccc3)[C@@H](C(=O)N(C)C)[C@@H](O)[C@@]21O (racemic)", "MDA231 (breast adenocarcinoma)", 8.57),
    ("COc1cccc2c1C(=O)c1c(O)c3c(c(O)c1C2=O)C[C@@](O)(C(=O)CO)C[C@@H]3O[C@H]1C[C@H](N)[C@H](O)[C@H](C)O1 [Doxorubicin, doxorubicin, reference compound]", "MDA231 (breast adenocarcinoma)", 10.33),
]
